# assay system: T1, human RXFP1 (human, UniProt Q9HBX9 1-757)
# T1 sequence (looked up): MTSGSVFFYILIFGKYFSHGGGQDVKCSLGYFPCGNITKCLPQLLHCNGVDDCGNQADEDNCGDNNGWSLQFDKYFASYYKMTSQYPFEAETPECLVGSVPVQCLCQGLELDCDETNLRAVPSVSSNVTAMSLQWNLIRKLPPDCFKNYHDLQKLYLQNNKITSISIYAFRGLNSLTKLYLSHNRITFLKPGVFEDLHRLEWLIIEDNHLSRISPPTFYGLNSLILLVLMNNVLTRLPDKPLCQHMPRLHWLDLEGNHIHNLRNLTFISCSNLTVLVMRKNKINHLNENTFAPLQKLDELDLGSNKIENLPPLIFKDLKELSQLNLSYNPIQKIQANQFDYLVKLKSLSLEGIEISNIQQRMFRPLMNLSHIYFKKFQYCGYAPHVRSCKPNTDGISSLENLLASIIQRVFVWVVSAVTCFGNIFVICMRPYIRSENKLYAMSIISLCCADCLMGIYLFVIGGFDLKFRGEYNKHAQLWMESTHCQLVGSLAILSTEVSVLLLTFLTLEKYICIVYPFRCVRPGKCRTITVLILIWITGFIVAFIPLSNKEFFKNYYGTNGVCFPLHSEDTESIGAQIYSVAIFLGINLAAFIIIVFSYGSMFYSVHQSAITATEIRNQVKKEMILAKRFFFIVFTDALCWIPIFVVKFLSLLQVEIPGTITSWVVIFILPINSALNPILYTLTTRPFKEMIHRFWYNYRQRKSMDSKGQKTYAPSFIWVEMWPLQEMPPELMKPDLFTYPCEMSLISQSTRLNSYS
# procedure details: cell-based or functional assay
Numbered stars: 1 amine (or outer) side, 2 acyl side, 3 side chain; on linkers, the order of the positions; unused ones are H or OH. Square brackets hold non-standard residues; d marks the D form. Side chains are listed from the residue outwards. * marks the point of attachment. TTDS = 4-[3-[2-[2-(3-aminopropoxy)ethoxy]ethoxy]propylamino]-4-oxo-butanoyl; γGlu = O=C(O)[C@H](CCC(=O)[*:2])N[*:1]; Stearoyl = CCCCCCCCCCCCCCCCCC(=O)*; Palmitoyl = CCCCCCCCCCCCCCCC(=O)*; αMeK = C[C@](N)(CCCCN)C(=O)O; Aib = CC(C)(N)C(=O)O
test readout: EC50 (nM), OVCAR 5 cells (cAMP)

[
  {
    "binder": "Ac-LEGREKVRK(Ac)QI[Aib][Aib]EGK([TTDS-TTDS-TTDS-γGlu-γGlu-γGlu-Palmitoyl])STWS[Aib]RKK(Ac)-NH2 [Relaxin peptide analogue of SEQ ID NO: 65]",
    "EC50 (nM), OVCAR 5 cells (cAMP)": 1.19
  }
]

(1) Ac-LEGREKVRAK(Ac)I[Aib][Aib]EGK([TTDS-TTDS-γGlu-γGlu-Palmitoyl])STFS[αMeK]RAK(Ac)-NH2 [Relaxin peptide analogue of SEQ ID NO: 9]
(2) Ac-LEGREKVRAK(Ac)I[Aib][Aib]EGK([TTDS-TTDS-TTDS-γGlu-γGlu-γGlu-Palmitoyl])STFS[αMeK]RAK-NH2 [Relaxin peptide analogue of SEQ ID NO: 49]
Challenge: Pick the one with the larger EC50 (nM), OVCAR 5 cells (cAMP): 1 vs 2 Output the label that corresponds to your choice.
Response given: 1

(a) Ac-LEGREKVRAK(Ac)IA[Aib]EGK([TTDS-TTDS-TTDS-γGlu-γGlu-γGlu-Palmitoyl])STFS[αMeK]RAK(Ac)-NH2 [Relaxin peptide analogue of SEQ ID NO: 90]
(b) Ac-LEGREKVRAK(Ac)I[Aib][Aib]EGK([TTDS-TTDS-γGlu-γGlu-γGlu-Palmitoyl])STFS[dK]RAK(Ac)-NH2 [Relaxin peptide analogue of SEQ ID NO: 16]
Challenge: Pick the one with the larger EC50 (nM), OVCAR 5 cells (cAMP): a vs b Output the label that corresponds to your choice.
Response given: b

(1) Ac-LEGREKVRAK(Ac)I[Aib][Aib]EGK([TTDS-TTDS-γGlu-γGlu-γGlu-Stearoyl])STFS[αMeK]RAK(Ac)-NH2 [Relaxin peptide analogue of SEQ ID NO: 34]
(2) Ac-LEGREKVRAK(Ac)I[Aib][Aib]EGK([TTDS-TTDS-TTDS-γGlu-γGlu-γGlu-Palmitoyl])STWS[Aib]RKK(Ac)-NH2 [Relaxin peptide analogue of SEQ ID NO: 1]
(3) Ac-LEGREKVRAK(Ac)I[Aib][Aib]EGK([TTDS-TTDS-TTDS-γGlu-γGlu-γGlu-Stearoyl])STWS[αMeK]RAK(Ac)-NH2 [Relaxin peptide analogue of SEQ ID NO: 30]
Challenge: // smallest EC50 (nM), OVCAR 5 cells (cAMP) at index 0, largest at the end Hello, could you send the labels back in the order asked? Thank you.
Response given: 1, 3, 2
(1: 0.14 nM, 3: 0.21 nM, 2: 1.5 nM)
